B1: MTMR15 (parent)
chain: FSPDFTLRNTLKSTSEDSLVKQEC

Variants of: B1
ASSAY INFO: protein stability index of a GFP-peptide fusion (GPS, HEK-293T) (PSI 1-6); higher = more stable;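 note: lentivirally expressed fusions sorted by FACS into six bins by GFP to DsRed ratio, PSI derived from sequencing read proportions per bin multiplied by bin number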
CONDITION DESCRIPTION: c terminus: a fixed tail appended
Reported protein stability index values are given for each entry in this list.
Answer as a number with no unit attached.

- FSPDFTLRNTLKSTSEDSLVKQER [C24R]: 2.34
- FSPLFTLRNTLKSTSEDSLVKQEC [D4L]: 1.94
- FSPDFTLRNTLKSTSEDSLVKGEC [Q22G]: 2.31
- FSPDFTLRNTLKSTSEDSLVGQEC [K21G]: 2.15
- FSPDFQLRNTLKSTSEDSLVKQEC [T6Q]: 2.24
- FSPDFTLRNTLKSTSEDSLVWQEC [K21W]: 2.4
- FSPDFTQRNTLKSTSEDSLVKQEC [L7Q]: 2.16
- FSPDFTLRNTLWSTSEDSLVKQEC [K12W]: 3.33

Problem: Provide one value: measured protein stability index of FSPDFTLRNTLKSTSEDSLVKQES [C24S]
Solution: 1.85

Problem: Provide one value: measured protein stability index of FSPDFTLRNTLKSTSIDSLVKQEC [E16I]
Solution: 1.91

Problem: Provide one value: measured protein stability index of FSPDFTLRNTLKSCSEDSLVKQEC [T14C]
Solution: 2.78
